# experimentalSystem: S. pyogenes SKKanGAS, kanamycin survival, BacTiterGlo, 6 h
# assayOverview: S. pyogenes SKKanGAS kanamycin growth inhibitors – SKKanGAS strain, luminescence, dose confirmation, streptokinase promoter inhibitor project, dose response (AID 1902);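 active = EC50 no more than a set limit of log units above the highest dose; inactive = the rest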;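 note: lower survival reflects blocked streptokinase promoter driving kanamycin resistance gene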
Thanks in advance; please answer with one of these: true = active, false = inactive

INSERT INTO measurements (compound, class) VALUES
  ('O=C(NC(NC(=S)Nc1cccc(Cl)c1)C(Cl)(Cl)Cl)OCc1ccccc1 (configuration not stated)', 'true'),
  ('Cc1ncc(CO)c(/C=N/NC(=O)c2cc(Br)ccc2O)c1O', 'true'),
  ('COc1ccc(NC(=O)C(OC(=O)c2cnc(C)cn2)c2ccccc2)cc1Cl (configuration not stated)', 'true'),
  ('CC1=CC(C)(C)n2c(O)c(N=N)c3c(C)c(C)cc1c32', 'true'),
  ('Cc1ccc(/C=C2/Sc3ccc(C(=O)N4CCN(C)CC4)cc3NC2=O)cc1', 'true');

We now examine a further compound.
I'd appreciate the recorded outcome for "COc1ccc2nc(-n3c(O)c(C4=c5ccccc5=NC4=O)[nH]c3=S)sc2c1" from this test.
true
